test system: A549-ACE2 infected with SARS-CoV-2; assay: SARS-CoV-2 infection rate relative to DMSO; higher = more infection; conditions: 0.3 µM; 24 h
parameter: SARS-CoV-2 infection rate
Value and unit, in that order.

[[record]]
compound = "CNC(=O)c1cc(Oc2ccc(NC(=O)Nc3cc(C(C)(C)C)nn3-c3ccc4ncccc4c3)c(F)c2)ccn1"
measuredvalue = "92%"

[[record]]
compound = "OCc1cc(C(O)CNCCCCCCOCCCCc2ccccc2)ccc1O (stereo unspecified)"
measuredvalue = "107%"

[[record]]
compound = "Cc1ccc(NC(=O)c2ccc(CN3CCN(C)CC3)cc2)cc1Nc1nc(-c2cccnc2)cs1"
measuredvalue = "98%"

[[record]]
compound = "CO[C@H]1C[C@H](O[C@@H]2/C(C)=C/C[C@@H]3C[C@@H](C[C@]4(CC[C@H](C)[C@@H](C5CCCCC5)O4)O3)OC(=O)[C@@H]3C=C(C)/C(=N/O)[C@H]4OC/C(=C\\C=C\\[C@@H]2C)[C@]43O)O[C@@H](C)[C@@H]1O"
measuredvalue = "103%"

[[record]]
compound = "CCn1c(-c2nonc2N)nc2cncc(C(=O)N3CC[C@H](N)C3)c21"
measuredvalue = "105%"


Next:
Please report the recorded SARS-CoV-2 infection rate for CC(=O)OC[C@H]1O[C@@H]([S-])[C@H](OC(C)=O)[C@@H](OC(C)=O)[C@@H]1OC(C)=O.CCP(CC)CC.[Au+] .
91%

Sourced from the supplement of paper PMC13380429
